Tested on: wheat germ agglutinin (Triticum aestivum), Alexa647-labelled
protocol_details: wheat germ agglutinin binders on compound microarrays, profiling panel, artefact control for SMM control-protein annotation, biochemical, small-molecule microarray, 635/667 nm fluorescence (AID 1140);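 further: score merges 667 nm feature emission with signal to noise over triplicate slides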
condition_details: WGA-A647 binding, 635 nm fluorescence, higher = more signal
parameter: composite z-score
One number for each entry.

// known answers, use as guide
>>> quantitative_readout("Cc1cc2c(c(=O)o1)[C@H](O)[C@H]1O[C@H]1C2=O")
-0.137
>>> quantitative_readout("COc1ccc([Si](C)(C)[C@@H]2[C@@H](CC(=O)N3CCC[C@H]3CO)O[C@]3(C(=O)N(Cc4cccc(N5CCC5=O)c4)c4ccccc43)[C@H]2C)cc1")
0.81

Quick request: composite z-score for each listed item, please.
1. CO[C@@H]1COC(=O)[C@H](C)NC(=O)[C@@H](C)COC(=O)CCC[C@H]1C
2. N#Cc1ccc(NN2C(C(O)c3cccc4ccccc34)C=CC3C(=O)N(c4ccccc4)C(=O)C32)cc1 (stereo not given)
3. CC=CC1=C(CO)[C@H](O)[C@H]2O[C@H]2[C@H]1O

Output:
[0.405, 1.24, -0.191]

###

target_under_test: NADPH oxidase 4 (Homo sapiens) (UniProt Q9NPH5)
Sequence (Q9NPH5 whole entry, looked up): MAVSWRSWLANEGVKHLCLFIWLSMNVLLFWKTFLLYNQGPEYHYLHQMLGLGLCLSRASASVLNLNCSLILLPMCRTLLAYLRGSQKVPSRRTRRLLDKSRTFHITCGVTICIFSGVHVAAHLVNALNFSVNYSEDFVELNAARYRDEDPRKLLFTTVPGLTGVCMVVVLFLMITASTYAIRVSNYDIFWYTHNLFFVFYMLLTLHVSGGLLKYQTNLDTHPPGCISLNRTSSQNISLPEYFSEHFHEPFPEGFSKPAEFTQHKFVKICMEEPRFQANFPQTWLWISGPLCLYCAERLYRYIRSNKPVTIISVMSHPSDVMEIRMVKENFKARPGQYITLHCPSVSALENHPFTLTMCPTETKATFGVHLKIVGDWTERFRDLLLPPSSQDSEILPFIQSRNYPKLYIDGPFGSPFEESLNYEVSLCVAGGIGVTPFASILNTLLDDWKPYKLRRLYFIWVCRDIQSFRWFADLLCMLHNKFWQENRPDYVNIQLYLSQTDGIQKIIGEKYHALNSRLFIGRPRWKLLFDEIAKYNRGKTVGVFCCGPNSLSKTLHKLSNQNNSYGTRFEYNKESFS
protocol_details: NOX4-dependent H2O2 signal modulators, primary screen, NOX inhibitor project, cell-based, HEK293-NOX4, tetracycline-induced, Amplex Red fluorescence (AID 1160)
condition_details: 45 min, higher = more signal, called active from +8 up or from −8 down
Give z-score for every item shown.
Answers are plain numbers.

// known answers, use as guide
>>> quantitative_readout("CCOC(=O)NN=C1C[C@@H](O)[C@@H](O)[C@@H]2[C@@H]3C(=O)N(C4CCCCC4)C(=O)[C@@H]3CC[C@H]12")
-1.17
>>> quantitative_readout("NC(=O)NCC#Cc1ccc2c(c1)[C@]1(C(=O)N2)[C@H](c2ccc(O)cc2)N2[C@H](c3ccccc3)[C@H](c3ccccc3)OC(=O)[C@H]2[C@@H]1C(=O)N1CCCCCCC1")
0.802
>>> quantitative_readout("CCOC(=O)[C@H](Cc1ccccc1)NC(=O)CCC1CC(OC(=O)NCc2ccc3c(c2)OCO3)CC2(CCCC(COC(=O)NCC(c3ccccc3)c3ccccc3)O2)O1 (stereo partly specified)")
0.406
>>> quantitative_readout("COC(=O)[C@@H]1CC[C@H](C)[C@@H](c2ccc(C)cc2)N1C(=O)c1ccc(C=NOC[C@@H](O)COCc2ccco2)cc1")
-0.0106
>>> quantitative_readout("C#CCCCON=C1C[C@@H](O)[C@@H](O)[C@@H]2[C@@H]3C(=O)N(CCC(=O)OCC)C(=O)[C@@H]3CC[C@@H]12")
0.556

Input: I would be grateful if you could share the reported z-score for C#CCCCON=C1C[C@@H](O)[C@@H](O)[C@@H]2[C@@H]3C(=O)N(c4cccc(Oc5ccccc5)c4)C(=O)[C@@H]3CC[C@@H]12 .
Output: -0.598

###

System: PRMT1 (protein arginine N-methyltransferase 1)
protocol_details: PRMT1 binders on small-molecule microarrays, primary screen, biochemical, small-molecule microarray, 635 nm fluorescence (AID 1088);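 further: binding of Prmt1 protein to compounds spotted on small-molecule microarray slides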
condition_details: small-molecule microarray binding, higher = more signal
parameter: composite z-score
One number for each entry.

>>> quantitative_readout("CCN1C(=O)[C@H]2[C@H]3[C@H](O)[C@H](O)CC(=NO[C@@H]4O[C@H](CO)[C@@H](O)[C@H](O)[C@H]4O)[C@@H]3CC[C@H]2C1=O")
-0.685
>>> quantitative_readout("COc1cccc([C@H]2Oc3ccc(OC)cc3C(=NO[C@H](C)c3cn([C@@H]4COC[C@H]4O)nn3)[C@@H]2O)c1")
-0.499
>>> quantitative_readout("CC(C)=CCCC(C)=CCON=C1[C@H]2CCn3c(=O)n(Cc4cc5c(cc4Cl)OCO5)c(=O)n3[C@H]2[C@H](O)[C@@H]2O[C@H]12")
-0.477
>>> quantitative_readout("COC(=O)[C@@H]1CCCN1C(=O)[C@@H](C)CO")
0.177
>>> quantitative_readout("CC1CC/C=C\\[C@H]2OC34C=CCN(C(C)C)C(=O)[C@H]3N(CCCO)C(=O)[C@@H]4C2C(=O)O1 (stereo partly drawn)")
1.04
>>> quantitative_readout("CO[C@@H]1COC(=O)CC=C[C@@H](C)[C@H](OC)COC(=O)[C@H](COCc2ccccc2)NC(=O)CC=C[C@H]1C")
0.234
>>> quantitative_readout("C#C[C@@H]1Oc2ccccc2S(=O)(=O)N2CCC[C@H]12")
-1.07

Consider the additional molecule presented here.
Input: I would be grateful if you could share the reported composite z-score for C=C(/C(=C/C[C@H](OC(=O)c1ccncc1)c1ccc(OCCO)cc1)c1cnc2ccccc2c1)C(C)C .
Output: 1.55

###

Give composite z-score for every item shown.
target_under_test: Albumin (Bos taurus)
protocol_details: bovine serum albumin binders on microarray, profiling panel, artefact control for SMM control protein annotation, biochemical, small-molecule microarray, Alexa647 label, 635/667 nm fluorescence (AID 1118);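 further: score merges 667 nm emission intensity and signal-to-noise per printed compound spot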
condition_details: BSA-A647 binding, fluorescence 635 nm, higher = more signal
Answers are plain numbers.

// known answers, use as guide
>>> quantitative_readout("O=C1[C@H]2[C@H]3[C@H](O)[C@H](O)CC(=NOCc4ccccc4)[C@@H]3CC[C@H]2C(=O)N1Cc1ccccc1")
0.55
>>> quantitative_readout("O=C1C[C@@H](O)[C@@H](O)[C@@H]2[C@@H]3C(=O)N(Cc4ccc5c(c4)OCO5)C(=O)[C@@H]3CC[C@@H]12")
0.295
>>> quantitative_readout("COc1ccc(-c2nc3c(c4c2C[C@H](C)OC4)CN(CCC(C)C)CC3)cc1")
0.556
>>> quantitative_readout("CC(C)=NOCc1cccc(-c2cc(-c3ccccc3)no2)c1")
-0.0583
>>> quantitative_readout("CO[C@H]1O[C@H](CO)[C@@H](OC(=O)Nc2ccc(C#N)cc2)[C@H](OC(=O)c2cc3ccccc3[nH]2)[C@H]1OC(=O)c1cc2ccccc2[nH]1")
0.904
>>> quantitative_readout("COCCCNC(=O)[C@@]1(Sc2ccc(C)cc2)CC(=O)N(Cc2ccccc2)[C@@H]1c1ccc(CO)cc1I")
0.757
>>> quantitative_readout("CCOC(=O)CCN1C(=O)[C@H]2[C@H]3[C@H](O)[C@H](O)CC(=NOC[C@@H](O)COCc4ccco4)[C@H]3CC[C@H]2C1=O")
0.494
>>> quantitative_readout("CC(CCN1CCc2nc(-c3ccccc3)c(-c3ccccc3)cc2C1)=NO[C@H](C)c1cn([C@@H]2COC[C@H]2O)nn1")
0.156

Quick request: composite z-score for each listed item, please.
1. CO[C@H]1O[C@H](CO)[C@@H](OC(=O)Nc2ccc3c(c2)OCO3)[C@H](OC(=O)Nc2ccccc2-c2ccccc2)[C@@H]1OC(=O)Nc1ccccc1-c1ccccc1
2. N#Cc1ccc(NN2C(C(O)c3cccc4ccccc34)C=CC3C(=O)N(c4ccccc4)C(=O)C32)cc1 (stereo unspecified)
3. CC(C)(C)OC(=O)CC[C@]1(C(N)=O)COC(c2ccc(OCCCO)cc2)=N1
4. C[C@@H]1C=CCC(=O)OC[C@H](C)C(=O)OC[C@H]2O[C@H]1C=C[C@H]2O
5. CO[C@@H]1COC(=O)[C@@H]2CCCN2C(=O)[C@@H](C)COC(=O)[C@H](COCc2ccccc2)NC(=O)CC=C[C@H]1C

Output:
1: 0.929; 2: 0.595; 3: 0.617; 4: 0.411; 5: 0.0307

Quick request: composite z-score for each listed item, please.
1. [N-]=[N+]=Nc1ccccc1C[C@@]1(C(N)=O)N=C(c2ccc(OCCCO)cc2)O[C@@H]1c1ccccc1
2. CCOC(=O)NN=C1C[C@@H](O)[C@@H](O)[C@@H]2[C@@H]3C(=O)N(CC)C(=O)[C@@H]3CC[C@@H]12

Output:
0.841
0.338

Input: I would be grateful if you could share the reported composite z-score for N#Cc1ccc(NN2C(C(O)c3cc(C(F)(F)F)cc(C(F)(F)F)c3)C=CC3C(=O)N(c4ccccc4)C(=O)C32)cc1 (stereo unspecified) .
Output: 0.996

###

protocol_details: small-molecule microarray binders of probe aCHRDL2, primary screen, biochemical, biotinylated probe, 635/667 nm fluorescence (AID 1100)
condition_details: higher = more signal
Give composite z-score for every item shown.
Numbers only.

// known answers, use as guide
>>> quantitative_readout("O=C1c2ccccc2[C@@]2(Cc3ccccc3N(C3CC3)C2=O)[C@H](c2ccc(CO)cc2)N1Cc1ccccc1C(F)(F)F")
0.281
>>> quantitative_readout("CC(C)=CCCC(C)=CCON=C1[C@H]2CCn3c(=O)n(Cc4cc5c(cc4Cl)OCO5)c(=O)n3[C@H]2[C@H](O)[C@@H]2O[C@H]12")
-0.248
>>> quantitative_readout("C=CC[C@@H]1C=C[C@H](ON=C[C@@H](OC)[C@H](C)C=CCC(=O)OC)[C@@H](CO)O1")
-0.615

Quick request: composite z-score for each listed item, please.
1. O=C1[C@H]2[C@H]3[C@H](O)[C@H](O)CC(=NOC[C@@H](O)COCc4ccco4)[C@H]3CC[C@H]2C(=O)N1c1cccc(Oc2ccccc2)c1
2. CCOC(=O)NN=C1C[C@@H](O)[C@@H](O)[C@@H]2[C@@H]3C(=O)N(C[C@@H]4CCCO4)C(=O)[C@@H]3CC[C@@H]12
3. [N-]=[N+]=Nc1ccccc1C[C@@]1(C(N)=O)N=C(c2ccc(OCCCO)cc2)O[C@@H]1c1ccccc1
4. CCOC(=O)CCN1C(=O)[C@H]2[C@H]3[C@H](O)[C@H](O)CC(=NOC[C@@H](O)COCc4ccco4)[C@H]3CC[C@H]2C1=O
5. COC(=O)[C@H](C)NC(=O)[C@@H](C)CO
6. O=C1[C@H]2[C@H]3[C@H](O)[C@H](O)CC(=NO[C@@H]4O[C@H](CO)[C@@H](O)[C@H](O)[C@H]4O)[C@H]3CC[C@H]2C(=O)N1C1CCCCC1
7. CN(C)CCCNC(=O)[C@@H]1c2ccccc2C(=O)N(Cc2ccccc2)[C@H]1c1ccc(CO)cc1
8. O=C1O[C@@H](c2ccccc2)[C@@H](c2ccccc2)N2[C@@H](c3ccc(OCCO)cc3)[C@]3(C(=O)Nc4ccc(C#CCCO)cc43)[C@@H](C(=O)N3CCCCCCC3)[C@H]12

Output:
0.166
-0.133
1.3
-0.5
-0.469
-0.0589
0.341
1.13

Quick request: composite z-score for each listed item, please.
1. CC(C)=NOCc1cccc(-c2cc(-c3ccccc3)no2)c1
2. Cc1ccc(F)cc1S(=O)(=O)N[C@@H]1CCN(Cc2ccc(CC(C)C)cc2)C1
3. CCOC(=O)CCN1C(=O)[C@H]2[C@H]3[C@H](O)[C@H](O)CC(=O)[C@H]3CC[C@H]2C1=O
4. CCOC(=O)[C@H](CC(C)C)NC(=O)CCC1CC(OC(=O)NCc2cccc3ccccc23)CC2(CCCC(COC(=O)NCCN3CCOCC3)O2)O1 (stereo not given in full)

Output:
-0.609
-0.24
-0.723
-0.668
